- Tested on: quinolone susceptible pneumococci (ciprofloxacin MICs ≦4.0 μg/ml)
- Protocol notes: Agar dilution MICs of 207 quinolone susceptible pneumococcal strains
- Type: cell-based, Streptococcus pneumoniae
- Condition: Streptococcus pneumoniae, agar dilution; Penicillin S strains; read-out: MIC90
Parameter measured: MIC90 (µg/mL)
Answers are plain numbers, in µg/mL.

Example cases with answers are listed next.
Compound	MIC90 (µg/mL)
CO/N=C(\C(=O)N[C@@H]1C(=O)N2C(C(=O)O)=C(COC(N)=O)CS[C@H]12)c1ccco1	0.25
CC[C@H]1OC(=O)[C@H](C)[C@@H](O[C@H]2C[C@@](C)(OC)[C@@H](O)[C@H](C)O2)[C@H](C)[C@@H](O[C@@H]2O[C@H](C)C[C@H](N(C)C)[C@H]2O)[C@](C)(OC)C[C@@H](C)C(=O)[C@H](C)[C@@H](O)[C@]1(C)O	0.06
CO/N=C1\CN(c2nc3c(cc2F)c(=O)c(C(=O)O)cn3C2CC2)CC1CN (racemic)	0.03
C[C@@H]1CN(c2c(F)c(N)c3c(=O)c(C(=O)O)cn(C4CC4)c3c2F)C[C@H](C)N1	1
CC1(C)S[C@@H]2[C@H](NC(=O)Cc3ccccc3)C(=O)N2[C@H]1C(=O)O	0.03

Input: Query: MIC90; subject: CC1(C)S[C@@H]2[C@H](NC(=O)[C@H](N)c3ccc(O)cc3)C(=O)N2[C@H]1C(=O)O
Output: 0.06

* * *

Consider the following compounds; for each one, report its MIC.
- System: quinolone-resistant Haemophilus influenzae strains
- Protocol notes: Microdilution MIC determination in HTM for quinolone-resistant Haemophilus influenzae strains
- Format: cell-based
- Condition: strain 7; mutations S84-R, D420-N, S84-L A117-E, None
Answers are plain numbers, in µg/mL.

Example cases with answers are listed next.
Compound	MIC / µg/mL
N[C@@H]1[C@H]2CN(c3nc4c(cc3F)c(=O)c(C(=O)O)cn4-c3ccc(F)cc3F)C[C@@H]12	4
CO/N=C1\CN(c2nc3c(cc2F)c(=O)c(C(=O)O)cn3C2CC2)CC1CN (centres unmarked)	0.5
C[C@H]1COc2c(N3CCN(C)CC3)c(F)cc3c(=O)c(C(=O)O)cn1c23	2
Cc1c(F)c(N2CCNC(C)C2)cc2c1c(=O)c(C(=O)O)cn2C1CC1 (centres unmarked)	1

Consider now this further compound.
Input: Query: MIC; subject: C[C@@H]1CN(c2c(F)c(N)c3c(=O)c(C(=O)O)cn(C4CC4)c3c2F)C[C@H](C)N1
Output: 1

* * *

- Test system: quinolone-resistant Haemophilus influenzae strains
- Protocol notes: Microdilution MIC determination in HTM for quinolone-resistant Haemophilus influenzae strains
- Assay type: cell-based
- Condition: strain 6; mutations S84-R, D420-N, S84-L A117-E, None
Parameter measured: MIC
State the value with its unit after it.

Your task in this section: give MIC for each listed record.
1. Cc1c(F)c(N2CCNC(C)C2)cc2c1c(=O)c(C(=O)O)cn2C1CC1 (centres unmarked)
2. CO/N=C1\CN(c2nc3c(cc2F)c(=O)c(C(=O)O)cn3C2CC2)CC1CN (centres unmarked)
3. N[C@@H]1[C@H]2CN(c3nc4c(cc3F)c(=O)c(C(=O)O)cn4-c3ccc(F)cc3F)C[C@@H]12
4. C[C@@H]1CN(c2c(F)c(N)c3c(=O)c(C(=O)O)cn(C4CC4)c3c2F)C[C@H](C)N1
5. C[C@H]1COc2c(N3CCN(C)CC3)c(F)cc3c(=O)c(C(=O)O)cn1c23

Output:
1. 1 µg/mL
2. 0.5 µg/mL
3. 4 µg/mL
4. 1 µg/mL
5. 2 µg/mL
